These data points were gathered from patent US20200087363A1.

# EXPERIMENTAL SYSTEM: T1, HLA-B*44:05 (human)
# T1 construct: also called peptide-receptive MHC class I molecule
# EXPERIMENT SUMMARY: UV peptide exchange, anti-b2m ELISA
Listed binders paired with reported peptide exchange yield

Reference set (3 entries):
BINDER	VALUE OBSERVED
QEAKPRATW	50 to 75%
EDLAVHLY	10 to 20%
TEEPQRLFY	10 to 20%

**Q:** GET /values?readout=peptide exchange yield&item= "MEIKGTVTEF"
**A:** 50 to 75%

**Q:** GET /values?readout=peptide exchange yield&item= "SESSSFLKV"
**A:** 50 to 75%

**Q:** GET /values?readout=peptide exchange yield&item= "DENDAGNLITF"
**A:** 50 to 75%

**Q:** GET /values?readout=peptide exchange yield&item= "EEHVYESIIRW"
**A:** 50 to 75%
